Entry source: patent US10202413B2

Target: rat α1β2γ2L type GABAA receptors expressed in Xenopus laevis oocytes (Rattus norvegicus, UniProt P18508+P62813+P63138, INS375LLRMFSFK)
Construct: expressed in transfected cells; host or cells: Xenopus laevis oocytes
Sequence (P62813 28-455, stated change not applied): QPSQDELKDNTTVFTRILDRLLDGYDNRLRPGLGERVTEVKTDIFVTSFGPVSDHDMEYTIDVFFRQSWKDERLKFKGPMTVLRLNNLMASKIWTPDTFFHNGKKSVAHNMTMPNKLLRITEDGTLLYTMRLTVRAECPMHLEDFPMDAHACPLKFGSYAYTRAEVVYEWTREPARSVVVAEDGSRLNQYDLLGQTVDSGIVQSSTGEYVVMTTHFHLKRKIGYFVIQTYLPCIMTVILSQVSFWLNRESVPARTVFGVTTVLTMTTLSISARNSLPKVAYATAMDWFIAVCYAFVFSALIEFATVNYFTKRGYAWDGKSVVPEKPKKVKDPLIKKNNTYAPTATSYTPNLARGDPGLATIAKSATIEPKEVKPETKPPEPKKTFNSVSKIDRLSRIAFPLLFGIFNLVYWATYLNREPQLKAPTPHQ
Sequence (P63138 26-474, stated change not applied): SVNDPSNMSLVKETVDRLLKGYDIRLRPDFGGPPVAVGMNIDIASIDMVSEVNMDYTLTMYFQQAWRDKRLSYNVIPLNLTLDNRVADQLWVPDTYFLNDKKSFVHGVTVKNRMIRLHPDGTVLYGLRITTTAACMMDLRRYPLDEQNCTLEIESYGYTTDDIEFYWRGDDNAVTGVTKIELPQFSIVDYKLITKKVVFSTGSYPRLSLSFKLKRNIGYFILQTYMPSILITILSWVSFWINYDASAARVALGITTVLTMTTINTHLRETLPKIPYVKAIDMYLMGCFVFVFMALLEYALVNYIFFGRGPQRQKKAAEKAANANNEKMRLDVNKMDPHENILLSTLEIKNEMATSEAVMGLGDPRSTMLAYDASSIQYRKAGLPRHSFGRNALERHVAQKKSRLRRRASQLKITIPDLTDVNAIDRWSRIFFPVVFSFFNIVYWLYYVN
Sequence (P18508 with tags, fused parts or gaps INS375LLRMFSFK): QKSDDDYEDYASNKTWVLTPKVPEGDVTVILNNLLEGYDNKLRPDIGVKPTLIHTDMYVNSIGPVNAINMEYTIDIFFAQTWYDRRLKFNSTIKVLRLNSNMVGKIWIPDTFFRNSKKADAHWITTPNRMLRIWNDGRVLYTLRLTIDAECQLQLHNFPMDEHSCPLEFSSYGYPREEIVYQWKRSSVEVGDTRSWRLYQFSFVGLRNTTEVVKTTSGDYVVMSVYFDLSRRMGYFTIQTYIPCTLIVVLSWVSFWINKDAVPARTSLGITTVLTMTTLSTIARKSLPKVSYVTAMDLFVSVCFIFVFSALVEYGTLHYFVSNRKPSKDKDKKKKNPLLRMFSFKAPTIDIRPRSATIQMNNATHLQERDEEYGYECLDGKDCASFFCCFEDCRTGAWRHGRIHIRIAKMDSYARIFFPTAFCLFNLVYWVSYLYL
Assay: Oocyte electrophysiology: potentiation of chloride currents mediated by 2 μM GABA, and direct gating
Type: cell-based
Details: direct current gated by 10 μM compound in the absence of GABA; ± SEM (N≥4)
Label scheme for (gating) 10 μM: ratio of compound only current/GABA current: 1: < 0.04; 2: ≥ 0.04 and < 0.1; 3: ≥ 0.1

Assign a category based on measured (gating) 10 μM: ratio of compound only current/GABA current for `C[C@]1(O)CC[C@]2(C)[C@@H](CC[C@H]3[C@H]2CC[C@@]2(C)C(=O)CC[C@H]32)C1` and give only the class name.
3

Assign a category based on measured (gating) 10 μM: ratio of compound only current/GABA current for `C[C@@]12CC[C@@H]3[C@H](CC[C@H]4C[C@@H](O)CC[C@]43C)[C@H]1C[C@@H](C#N)C2` and give only the class name.
1

Assign a category based on measured (gating) 10 μM: ratio of compound only current/GABA current for `CO[C@@H]1C[C@@H]2[C@H]3C[C@H](OC)[C@@H]4C[C@@H](O)CC[C@@]4(C)[C@@H]3CC[C@@]2(C)C1` and give only the class name.
3

Assign a category based on measured (gating) 10 μM: ratio of compound only current/GABA current for `CO[C@H]1[C@H]2CC[C@H]3[C@@H](CC[C@@]4(C)C(=O)CC[C@H]34)[C@]2(C)CC[C@@H]1O` and give only the class name.
2

Assign a category based on measured (gating) 10 μM: ratio of compound only current/GABA current for `CO[C@H]1[C@H]2CC[C@@H]3[C@H]4CC(=O)C[C@]4(C)CC[C@H]3[C@]2(C)CC[C@@H]1O` and give only the class name.
2

Assign a category based on measured (gating) 10 μM: ratio of compound only current/GABA current for `CO[C@H]1CC[C@]2(C)CC[C@@H]3[C@H](CC[C@@H]4C[C@@H](O)CC[C@]43C)[C@@H]12` and give only the class name.
2

Assign a category based on measured (gating) 10 μM: ratio of compound only current/GABA current for `C[C@@]12CC[C@H](O)C[C@H]1CC[C@H]1[C@H]2CC[C@@]2(C)C=C(C#N)C[C@H]12` and give only the class name.
2

Assign a category based on measured (gating) 10 μM: ratio of compound only current/GABA current for `C[C@@]12CC[C@@H]3[C@H](CC(=O)[C@@H]4C[C@@H](O)CC[C@@]34C)[C@H]1CC(=O)C2` and give only the class name.
1

Assign a category based on measured (gating) 10 μM: ratio of compound only current/GABA current for `C[C@@]12CC[C@@H]3[C@H](CC[C@@H]4C[C@@H](O)CC[C@]43C)[C@H]1CC(=O)C2` and give only the class name.
3

Assign a category based on measured (gating) 10 μM: ratio of compound only current/GABA current for `C[C@@]12CC[C@H](O)C[C@@H]1CC[C@H]1[C@H]2CC[C@@]2(C)C=C(C#N)C[C@H]12` and give only the class name.
3

Assign a category based on measured (gating) 10 μM: ratio of compound only current/GABA current for `C[C@@]12CC[C@@H]3[C@H](CC[C@@H]4C[C@@H](O)CC[C@]43C)[C@H]1C[C@@H](C#N)C2` and give only the class name.
1

Assign a category based on measured (gating) 10 μM: ratio of compound only current/GABA current for `C[C@@]12CC[C@H](O)C[C@H]1CC[C@@H]1[C@H]3CC(=O)C[C@@H]3CC[C@H]12` and give only the class name.
1

Assign a category based on measured (gating) 10 μM: ratio of compound only current/GABA current for `C[C@]1(O)CC[C@]2(C)[C@H](CC[C@H]3[C@H]2CC[C@@]2(C)C(=O)CC[C@H]32)C1` and give only the class name.
2

Assign a category based on measured (gating) 10 μM: ratio of compound only current/GABA current for `C[C@@]12CC[C@H]3[C@@H]4CC[C@H](O)C[C@H]4CC[C@@H]3[C@H]1CC(=O)C2` and give only the class name.
1

Assign a category based on measured (gating) 10 μM: ratio of compound only current/GABA current for `C[C@@]12CC[C@H]3[C@@H]4CC[C@H](O)C[C@H]4CC[C@@H]3[C@H]1CCC2=O` and give only the class name.
3

Assign a category based on measured (gating) 10 μM: ratio of compound only current/GABA current for `CC(=O)[C@@H]1C[C@@H]2[C@H]3CC[C@@H]4C[C@@H](O)CC[C@@]4(C)[C@@H]3CC[C@@]2(C)C1` and give only the class name.
1

Assign a category based on measured (gating) 10 μM: ratio of compound only current/GABA current for `C[C@@]12CC[C@@H]3[C@H](CC[C@H]4C[C@@H](O)CC[C@]43C)[C@H]1CC(=O)C2` and give only the class name.
3

Assign a category based on measured (gating) 10 μM: ratio of compound only current/GABA current for `C[C@@]12CC[C@@H]3[C@H](CC[C@@H]4C[C@@H](O)CC[C@]43C)[C@H]1CC(=CC#N)C2` and give only the class name.
3

* * *

Target: rat α1β2γ2L type GABAA receptors expressed in Xenopus laevis oocytes (Rattus norvegicus, UniProt P18508+P62813+P63138, INS375LLRMFSFK)
Construct: expressed in transfected cells; host or cells: Xenopus laevis oocytes
Test: Oocyte electrophysiology: potentiation of chloride currents mediated by 2 μM GABA, and direct gating
Type: cell-based
Conditions: 0.1 μM compound; 2 μM GABA; ± SEM (N≥4)
For each entry below, report its ratio of currents measured in the presence/absence of added compound, 0.1 μM value.

Endpoint output: ratio of currents measured in the presence/absence of added compound, 0.1 μM of `C[C@@]12CC[C@@H]3[C@H](CC[C@H]4C[C@@H](O)CC[C@]43C)[C@H]1C[C@@H](C#N)C2` . Value?
2.32 ± 0.17

Endpoint output: ratio of currents measured in the presence/absence of added compound, 0.1 μM of `C[C@@]12CC[C@H]3[C@@H]4CC[C@H](O)C[C@@H]4CC[C@@H]3[C@H]1CC(=O)C2` . Value?
1.20 ± 0.02

Endpoint output: ratio of currents measured in the presence/absence of added compound, 0.1 μM of `CO[C@@H]1C[C@@H]2[C@H]3C[C@H](OC)[C@@H]4C[C@@H](O)CC[C@@]4(C)[C@@H]3CC[C@@]2(C)C1` . Value?
1.19 ± 0.18

* * *

Target: rat α1β2γ2L type GABAA receptors expressed in Xenopus laevis oocytes (Rattus norvegicus, UniProt P18508+P62813+P63138, INS375LLRMFSFK)
Construct: expressed in transfected cells; host or cells: Xenopus laevis oocytes
Test: Oocyte electrophysiology: potentiation of chloride currents mediated by 2 μM GABA, and direct gating
Assay type: cell-based
Details: 10 μM compound; 2 μM GABA; ± SEM (N≥4)
measure: ratio of currents measured in the presence/absence of added compound, 10 μM
When you answer, write just the number.

Endpoint output: ratio of currents measured in the presence/absence of added compound, 10 μM of `C[C@@]12CC[C@@H]3[C@H](CC[C@@H]4C[C@@H](O)CC[C@]43C)[C@H]1CC(=CC#N)C2` . Value?
10.16

Endpoint output: ratio of currents measured in the presence/absence of added compound, 10 μM of `C[C@@]12CC[C@H](O)C[C@@H]1CC[C@H]1[C@H]2CC[C@@]2(C)C=C(C#N)C[C@H]12` . Value?
10.04

Endpoint output: ratio of currents measured in the presence/absence of added compound, 10 μM of `C[C@@]12CC[C@H]3[C@@H]4CC[C@H](O)C[C@H]4CC[C@@H]3[C@H]1CC(=O)C2` . Value?
10.52

Endpoint output: ratio of currents measured in the presence/absence of added compound, 10 μM of `CO[C@@H]1C[C@@H]2[C@H]3C[C@H](OC)[C@@H]4C[C@@H](O)CC[C@@]4(C)[C@@H]3CC[C@@]2(C)C1` . Value?
14.08

Endpoint output: ratio of currents measured in the presence/absence of added compound, 10 μM of `C[C@@]12CC[C@H]3[C@@H]4CC[C@H](O)C[C@H]4CC[C@@H]3[C@H]1CCC2=O` . Value?
9.34

Endpoint output: ratio of currents measured in the presence/absence of added compound, 10 μM of `C[C@@]12CC[C@H]3[C@@H]4CC[C@H](O)C[C@@H]4CC[C@@H]3[C@H]1CC(=O)C2` . Value?
13.91

Endpoint output: ratio of currents measured in the presence/absence of added compound, 10 μM of `C[C@@]12CC[C@@H]3[C@H](CC(=O)[C@@H]4C[C@@H](O)CC[C@@]34C)[C@H]1CC(=O)C2` . Value?
1.57

Endpoint output: ratio of currents measured in the presence/absence of added compound, 10 μM of `CO[C@H]1[C@H]2CC[C@@H]3[C@H]4CC(=O)C[C@]4(C)CC[C@H]3[C@]2(C)CC[C@@H]1O` . Value?
16.00

Endpoint output: ratio of currents measured in the presence/absence of added compound, 10 μM of `CO[C@H]1[C@H]2CC[C@H]3[C@@H](CC[C@@]4(C)C(=O)CC[C@H]34)[C@]2(C)CC[C@@H]1O` . Value?
12.21

Endpoint output: ratio of currents measured in the presence/absence of added compound, 10 μM of `C[C@]1(O)CC[C@]2(C)[C@H](CC[C@H]3[C@H]2CC[C@@]2(C)C(=O)CC[C@H]32)C1` . Value?
19.74

Endpoint output: ratio of currents measured in the presence/absence of added compound, 10 μM of `C[C@@]12CC[C@H](O)C[C@H]1CC[C@@H]1[C@H]3CC(=O)C[C@@H]3CC[C@H]12` . Value?
3.56

Endpoint output: ratio of currents measured in the presence/absence of added compound, 10 μM of `C[C@@]12CC[C@H](O)C[C@H]1CC[C@H]1[C@H]2CC[C@@]2(C)C=C(C#N)C[C@H]12` . Value?
1.58

Endpoint output: ratio of currents measured in the presence/absence of added compound, 10 μM of `CC(=O)[C@@H]1C[C@@H]2[C@H]3CC[C@@H]4C[C@@H](O)CC[C@@]4(C)[C@@H]3CC[C@@]2(C)C1` . Value?
6.21
